Sourced from patent EP4631938A1

target: human recombinant 5-HT2A receptor (Homo sapiens, UniProt P28223); construct: expressed in transfected cells; host or cells: Jump-In HEK cells (membrane preparation); assay: Test Example 1-2: 5-HT2A receptor binding inhibition test ([3H]-Ketanserin; non-specific ligand Ketanserin)
Sequence (P28223 whole entry): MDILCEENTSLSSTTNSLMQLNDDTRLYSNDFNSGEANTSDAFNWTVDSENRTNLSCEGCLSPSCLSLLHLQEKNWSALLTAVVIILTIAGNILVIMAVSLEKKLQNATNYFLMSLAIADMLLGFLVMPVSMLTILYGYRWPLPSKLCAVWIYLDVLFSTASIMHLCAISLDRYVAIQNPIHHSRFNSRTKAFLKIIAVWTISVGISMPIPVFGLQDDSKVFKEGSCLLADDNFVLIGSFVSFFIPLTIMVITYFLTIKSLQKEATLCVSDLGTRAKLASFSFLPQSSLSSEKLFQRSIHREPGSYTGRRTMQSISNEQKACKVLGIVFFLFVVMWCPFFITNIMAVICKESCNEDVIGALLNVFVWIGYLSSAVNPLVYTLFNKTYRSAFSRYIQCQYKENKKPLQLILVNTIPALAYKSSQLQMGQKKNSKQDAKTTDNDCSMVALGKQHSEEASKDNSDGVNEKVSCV
Classify by Ki. Ranges: label 0 (below 0.2 nM), label 1 (0.2 nM to below 0.5 nM), label 2 (0.5 nM or more)

| Smiles Record | Class |
| --- | --- |
| Cn1ncc(Br)c1-c1cc(Nc2ncc(C(F)(F)F)cc2F)ccc1OCCO | label 1 |

Consider Cc1cnn(C)c1-c1cc(Nc2ncc(C(F)(F)F)cc2F)ncc1OCCO . To which Ki class does it belong?
label 1

Input Cn1ncc(C#N)c1-c1cc(Nc2ncc(C(F)(F)F)cc2F)c(F)cc1OCCO ; output its category
label 1

Field: class (Ki) — entry: Cn1ncc(Br)c1-c1cc(Nc2ncc(C(F)(F)F)cc2F)cnc1OCCO
label 0

Lab note: which band did Cn1ncc(Br)c1-c1cc(Nc2nc3ccc(Cl)cc3s2)ccc1OCCO land in?
label 1

Into which category would you place Cn1ncc(C#N)c1-c1cc(Nc2ncc(C(F)(F)F)cc2F)ccc1OCCO ?
label 1

// bin(item) where item = Cn1ncc(Br)c1-c1cc(Nc2ccc(OC(F)(F)F)cn2)ncc1OCCO
label 0

State the band of Cc1cccc(F)c1-c1cc(Nc2ncc(C(F)(F)F)cc2F)ccc1OCCO
label 2

Tag the class for CC(C)c1cnn(C)c1-c1cc(Nc2ncc(C(F)(F)F)cc2F)ccc1OCCO
label 2

* * *

Biological target: human recombinant 5-HT2C receptor (Homo sapiens)
Construct: expressed in transfected cells; host or cells: Jump-In HEK cells (membrane preparation)
Sequence (P28335 33-458): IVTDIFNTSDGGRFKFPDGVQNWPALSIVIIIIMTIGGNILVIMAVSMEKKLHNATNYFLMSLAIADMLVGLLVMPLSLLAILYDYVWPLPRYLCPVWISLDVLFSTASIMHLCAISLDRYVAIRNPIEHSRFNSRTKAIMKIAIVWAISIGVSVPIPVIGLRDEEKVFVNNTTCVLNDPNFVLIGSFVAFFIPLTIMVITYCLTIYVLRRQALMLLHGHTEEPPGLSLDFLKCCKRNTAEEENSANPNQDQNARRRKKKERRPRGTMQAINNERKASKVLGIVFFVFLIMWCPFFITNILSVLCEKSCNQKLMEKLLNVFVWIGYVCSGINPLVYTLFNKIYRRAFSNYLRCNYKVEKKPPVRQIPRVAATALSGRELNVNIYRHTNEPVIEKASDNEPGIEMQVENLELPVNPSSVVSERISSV
Assay: Test Example 2: 5-HT2C receptor binding inhibition test ([3H]-Mesulergine; non-specific ligand Serotonin HCl)
Conditions: human serotonin 5-HT2C receptor binding activity
Description: The Kd value is calculated when the lot of the cell membrane is changed. […] The radioactivity of [^3H]-Mesulergine bound to the 5-HT2C receptor is measured using Microbeta2 (PerkinElmer) at a measurement time of 1 min/well. The Saturation curve is drawn from the measured value, and the Kd value is calculated from the slope of the Scatchard Plot. […]
Measure: pKi
As a rule, pKi stands for the negative log10 of the concentration, concentration in M.

Identify measured pKi associated with COCc1nc(C)c(-c2cc(Nc3ccc(-c4ccc(F)cc4)cn3)ncc2OCCO)c(C)n1 [Compound I-272]
8.85

Give the measured pKi for COCc1nc(C)c(-c2cc(Nc3ncc(OCCCC(F)(F)F)cc3Cl)ncc2OCCO)c(C)n1 [Compound I-238]
8.58

Please give measured pKi of the following entry: COCc1nc(C)c(-c2cc(Nc3ncc(-c4ccc(Cl)cn4)cc3Cl)ncc2OCCO)c(C)n1 [Compound I-235]
9.01

Specify reported pKi for the compound shown: Cc1nc(C)c(-c2cc(Nc3ncc(OC(F)(F)F)cc3F)ncc2O[C@H](C)CO)c(C)n1 [Compound I-392]
7.91

Supply pKi value. Item: COCCOc1nc(C)c(-c2cc(Nc3ncc(C(F)(F)F)cc3Cl)ncc2OCCO)c(C)n1 [Compound I-213]
8.39

Please list pKi recorded for the compound COCc1nc(C)c(-c2cc(Nc3ncc(C(F)(F)F)cc3F)ncc2OCCO)c(C)n1 [Compound I-199]
8.22

Provide only the value of recorded pKi for Cn1ncc(Cl)c1-c1cc(Nc2ncc(C(F)(F)F)cn2)ncc1OCCO [Compound I-311]
8.19

Consider the compound Cn1ncc(Br)c1-c1cc(Nc2ccc(Cl)cn2)c(Cl)cc1OCCO [Compound I-401] and give its recorded pKi.
9.07

Look up and report measured pKi for this entry: Cn1ncc(Br)c1-c1cc(Nc2nc3ccc(F)cc3s2)c(F)cc1OCCO [Compound I-405]
9.53

Give pKi for the following compound: Cc1nc(C)c(-c2cc(Nc3ncc(C(F)(F)F)cc3F)c(F)cc2OC[C@H](C)O)c(C)n1 [Compound I-197]
7.18

* * *

Measured pKi accompanies every entry in the list below.
biological target: human recombinant 5-HT2A receptor (Homo sapiens, UniProt P28223); construct: expressed in transfected cells; host or cells: Jump-In HEK cells (membrane preparation); experiment: Test Example 1-2: 5-HT2A receptor binding inhibition test ([3H]-Ketanserin; non-specific ligand Ketanserin); conditions: [3H]-Ketanserin; non-specific binding with 500 µmol/L Ketanserin; room temperature (25°C), 1.5 hours; read-out: h 5-HT2A Ki
pKi is defined as minus the log10 of a concentration measured in mol/L.

Examples with answers:
| Compound | Assayed System | pKi |
| --- | --- | --- |
| COCc1nc(C)c(-c2cc(Nc3ncc(-c4ncc(C)s4)cc3Cl)ncc2OCCO)c(C)n1 [Compound I-335] | human recombinant 5-HT2A receptor (Homo sapiens, UniProt P28223) | 8.93 |
| Cc1cnn(C)c1-c1nc(Nc2ccc(Cl)cc2F)c(F)cc1OCCO [Compound I-282] | human recombinant 5-HT2A receptor (Homo sapiens, UniProt P28223) | 9.65 |

Tell me its pKi given Cc1ncnc(C)c1-c1cc(Nc2ccc(Cl)cn2)ccc1OCCO [Compound I-103] as the entry.
9.45

Tell us which pKi value is on record for Cn1ncc(C#N)c1-c1cc(Nc2ccc(OC(F)(F)F)cn2)ccc1OCCO [Compound I-121]
9.55

Specify measured pKi for COCc1nc(C)c(-c2cc(Nc3ncc(-c4ccc(F)cc4F)cc3Cl)ncc2OCCO)c(C)n1 [Compound I-256] .
9.30

Supply reported pKi belonging to this compound: Cn1ncc(Br)c1-c1cc(Nc2ccc(C(F)(F)F)cn2)c(F)cc1OCCO [Compound I-151]
9.53

* * *

target: human recombinant 5-HT2A receptor (Homo sapiens); construct: expressed in transfected cells; host or cells: Jump-In HEK cells (membrane preparation); assay: Test Example 1-2: 5-HT2A receptor binding inhibition test ([3H]-Ketanserin; non-specific ligand Ketanserin); conditions: [3H]-Ketanserin; non-specific binding with 500 µmol/L Ketanserin; room temperature (25°C), 1.5 hours; read-out: h 5-HT2A Ki
Measure: pKi
To interpret pKi, take it as minus log10 of a concentration measured in moles per litre.

| Smiles Record | Assayed System | pKi |
| --- | --- | --- |
| Cn1ncc(C#N)c1-c1cc(Nc2ccc(-c3ccc(F)cc3)cn2)ncc1OCCO | human recombinant 5-HT2A receptor (Homo sapiens) | 9.74 |
| COCc1nc(C)c(-c2cc(Nc3ncc(-c4ccnc(C(F)(F)F)c4)cc3Cl)ncc2OCCO)c(C)n1 | human recombinant 5-HT2A receptor (Homo sapiens) | 8.57 |
| Cc1noc(C)c1-c1cc(Nc2ncc(C(F)(F)F)cc2F)c(F)cc1OCCO | human recombinant 5-HT2A receptor (Homo sapiens) | 9.59 |
| Cc1nc(COC2CC2)nc(C)c1-c1cc(Nc2ncc(C(F)(F)F)cc2Cl)ncc1OCCO | human recombinant 5-HT2A receptor (Homo sapiens) | 9.02 |
| OCCOc1ccc(Nc2ncc(C(F)(F)F)cc2F)cc1-c1ccnc(F)c1Cl | human recombinant 5-HT2A receptor (Homo sapiens) | 9.05 |
| Cc1cnn(C)c1-c1cc(Nc2ncc(C(F)(F)F)cc2F)cnc1OCCO | human recombinant 5-HT2A receptor (Homo sapiens) | 9.54 |

Enter recorded pKi with human recombinant 5-HT2A receptor (Homo sapiens) for Cc1nc(C)c(-c2cc(Nc3ncc(OC(F)(F)F)cc3F)ncc2OCCO)c(C)n1 here.
8.88

Find the measured pKi of COCc1nc(C)c(-c2nc(Nc3ccc(OC(F)(F)F)c(C)n3)c(F)cc2OCCO)c(C)n1 with human recombinant 5-HT2A receptor (Homo sapiens) as test system.
8.47

* * *

Molecular target: human recombinant 5-HT2C receptor (Homo sapiens, UniProt P28335)
Construct: expressed in transfected cells; host or cells: Jump-In HEK cells (membrane preparation)
Sequence (P28335 33-458): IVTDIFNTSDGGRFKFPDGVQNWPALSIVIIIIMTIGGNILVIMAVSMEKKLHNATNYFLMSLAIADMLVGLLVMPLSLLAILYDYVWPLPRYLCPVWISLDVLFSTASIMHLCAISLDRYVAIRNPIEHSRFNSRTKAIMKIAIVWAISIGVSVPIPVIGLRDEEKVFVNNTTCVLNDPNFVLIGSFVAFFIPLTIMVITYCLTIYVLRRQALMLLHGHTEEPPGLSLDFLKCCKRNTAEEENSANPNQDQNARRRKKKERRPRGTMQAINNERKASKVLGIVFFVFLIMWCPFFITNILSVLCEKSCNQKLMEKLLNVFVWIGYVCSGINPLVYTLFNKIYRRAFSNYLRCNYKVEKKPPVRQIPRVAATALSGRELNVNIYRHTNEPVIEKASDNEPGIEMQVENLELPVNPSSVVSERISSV
Assay: Test Example 2: 5-HT2C receptor binding inhibition test ([3H]-Mesulergine; non-specific ligand Serotonin HCl)
Conditions: [3H]-Mesulergine; non-specific binding with 500 µmol/L Serotonin HCl; 37°C, 2 hours
Measure: pKi
// field semantics: pKi = negative decimal log of concentration (mol/L)

| Smiles Record | Endpoint Result |
| --- | --- |
| Cn1ncc(Br)c1-c1cc(Nc2ccc(C(F)(F)F)cc2)ccc1OCCO | 8.84 |

Provide measured pKi value, entry: Cn1nccc1-c1cc(Nc2ncc(C(F)(F)F)cc2F)ccc1OCCO
8.06

# return recorded pKi for input Cn1ncc(Br)c1-c1cc(Nc2ccc(F)cc2)ccc1OCCO
7.94
